These measurements were taken from patent US20120301469A1.

biological target: T1, hRSV FTM-NN (membrane anchorless form of the Long fusion protein, 70 kDa) (human respiratory syncytial virus, …, UniProt P12568 26-524); experiment: ELISA on immobilized FTM-NN, periplasmic extract 1:10
T1 construct: also called FTM-NN (Long); hRSV FTM-protein
Provide the recorded Binding Long 1:10 PE (Fold blanc) for the entries that follow.
Numbers only, in fold blanc.

Task: Quick check: Binding Long 1:10 PE (Fold blanc) of Nanobody 1B2 (VHH, c-myc/His6-tagged; also called PMP1B2; PRSV1B2) VHH: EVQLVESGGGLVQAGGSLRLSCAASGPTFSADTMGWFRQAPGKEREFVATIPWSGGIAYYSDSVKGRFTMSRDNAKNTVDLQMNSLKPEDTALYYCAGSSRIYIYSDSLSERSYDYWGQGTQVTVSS ?
Output: 3.8

The record that follows has no Binding Long 1:10 PE (Fold blanc) shown yet.
Task: So what does the record say about Binding Long 1:10 PE (Fold blanc) for Nanobody 13E12 (VHH, also called PMP13E12; PRSV13E12) VHH: EVQLVESGGGLVQAGGSLRLSCAASGRTFSRYIMGWFRQAPGKEREFVGAISRSGDITSFADFVKGRFTMSRDNAKNTLYLQMNSLEPEDTAVYSCAANSDTYYIYSDIVVPERYDYWGQGTQVTVSS ?
Output: 3.7
